Target: T1, human ventricular myosin light chain 1, GlySer(His)6 tag (human, UniProt P08590 1-195, limits assumed)
T1 construct: also called human vMLC-1; vMLC1-6xHIS
T1 sequence (P08590 other isoform, or with tags, fused parts or gaps limits assumed): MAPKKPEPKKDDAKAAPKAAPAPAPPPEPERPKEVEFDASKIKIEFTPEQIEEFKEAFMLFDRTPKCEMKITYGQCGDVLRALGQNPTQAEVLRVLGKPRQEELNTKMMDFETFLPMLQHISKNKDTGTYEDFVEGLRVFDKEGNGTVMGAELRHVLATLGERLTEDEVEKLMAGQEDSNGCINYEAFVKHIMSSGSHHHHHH
Test: BIAcore, vMLC-1 immobilised
Recorded Endpoint: pKd
Conceptually, pKd converts a concentration in mol/L into minus its log10.

Binder: humanised 39-15 mAb 4-1:5-51 (antibody, human IgG1, kappa, V domains shown, human IgG1 kappa) VH: EVQLVQSGAEVKKPGESLKISCKGSGYSFTTYWIHWVRQMPGKGLEWMGAIYPGDGDTRYTQNFKDQVTISADKSISTAYLQWSSLKASDTAMYYCAREGTPPFTTATFAMAYWGQGTLVTVSS VL: DIVMTQSPDSLAVSLGERATINCKSSQSLLYSRTRKNYLAWYQQKPGQPPKLLIYWASTRQSGVPDRFSGSGSGTDFTLTISSLQAEDVAVYYCKQSYNLFTFGQGTKLEIKR
pKd: 11.77

**Query** Look up and state reported pKd for humanised 39-15 mAb 4-1:1-3 (antibody, human IgG1, kappa, V domains shown, human IgG1 kappa) VH: QVQLVQSGAEVKKPGASVKVSCKASGYTFTTYWIHWVRQAPGQRLEWMGAIYPGDGDTRYTQNFKDRVTITRDTSASTAYMELSSLRSEDMAVYYCAREGTPPFTTATFAMAYWGQGTLVTVSS VL: DIVMTQSPDSLAVSLGERATINCKSSQSLLYSRTRKNYLAWYQQKPGQPPKLLIYWASTRQSGVPDRFSGSGSGTDFTLTISSLQAEDVAVYYCKQSYNLFTFGQGTKLEIKR
**Result** 11.08

**Query** Look up and state reported pKd for humanised 39-15 mAb 4-1:1-46 (antibody, human IgG1, V domains shown, human IgG1 kappa) VH: QVQLVQSGAEVKKPGASVKVSCKASGYTFTTYWIHWVRQAPGQGLEWMGAIYPGDGDTRYTQNFKDRVTMTRDTSTSTVYMELSSLRSEDTAVYYCAREGTPPFTTATFAMAYWGQGTLVTVSS VL: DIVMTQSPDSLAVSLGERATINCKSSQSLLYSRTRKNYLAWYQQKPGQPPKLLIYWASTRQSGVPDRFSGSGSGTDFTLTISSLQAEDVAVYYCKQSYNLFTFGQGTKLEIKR
**Result** 11.09

**Query** Look up and state reported pKd for humanised 39-15 mAb 4-1:1-8 (antibody, V domains shown) VH: QVQLVQSGAEVKKPGASVKVSCKASGYTFTTYWIHWVRQATGQGLEWMGAIYPGDGDTRYTQNFKDRVTMTRNTSISTAYMELSSLRSEDTAVYYCAREGTPPFTTATFAMAYWGQGTLVTVSS VL: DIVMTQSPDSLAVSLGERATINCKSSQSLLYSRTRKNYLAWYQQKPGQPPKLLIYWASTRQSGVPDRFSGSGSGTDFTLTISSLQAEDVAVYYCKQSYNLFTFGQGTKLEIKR
**Result** 10.89

Every entry's value here was drawn from patent US20120253017A1.
